Sourced from patent US10934310B2

target: unphosphorylated-BTK kinase domain (UP-BTK), GST-tagged human BTK (389-659aa) (Homo sapiens (Human)); assay: BTK Kinase Lanthascreen Binding Assay; details: compound, 50 nM Tracer 236, 2 nM anti-GST antibody, 60 minutes; pIC50 = negative log of the IC50 in molar
observation.type: BTK_I_binding pIC50

[[record]]
molecule = "C=CC(=O)N[C@@H]1CC[C@@H](NC(=O)c2sc3nccc4c3c2NC(=O)N4c2ccc(Oc3ccccc3)cc2C)C1 (single isomer, unassigned) [Example 175]"
observation_type = "BTK_I_binding pIC50"
experimental_result = 8.05

[[record]]
molecule = "CCC(=O)N[C@@H]1CCC[C@@H]1NC(=O)c1sc2nccc3c2c1NC(=O)N3c1ccc(Oc2ccccc2)cc1C [Example 59]"
observation_type = "BTK_I_binding pIC50"
experimental_result = 5.46

[[record]]
molecule = "CC(=O)N[C@@H]1CC[C@@H](NC(=O)c2sc3nccc4c3c2NC(=O)N4c2ccc(Oc3ccccc3)cc2C)C1 [Example 228]"
observation_type = "BTK_I_binding pIC50"
experimental_result = 7.34

[[record]]
molecule = "Cc1cc(Oc2ccccc2)ccc1N1C(=O)Nc2c(C(=O)N[C@@H]3CCC[C@@H]3NC(=O)CN(C)C)sc3nccc1c23 (single isomer, unassigned) [Example 128]"
observation_type = "BTK_I_binding pIC50"
experimental_result = 7.10

[[record]]
molecule = "CC(=O)N[C@@H]1CCC[C@@H]1NC(=O)c1sc2nccc3c2c1NC(=O)N3c1ccc(Oc2ccccc2)cc1C [Example 57]"
observation_type = "BTK_I_binding pIC50"
experimental_result = 5.65

[[record]]
molecule = "N[C@@H]1CCC[C@@H]1NC(=O)c1sc2nccc3c2c1NC(=O)N3c1ccc(Oc2ccccc2)cc1 [Example 98]"
observation_type = "BTK_I_binding pIC50"
experimental_result = 6.10

[[record]]
molecule = "Cc1cc(Oc2ccccc2)ccc1N1C(=O)Nc2c(C(=O)NC3CCCC3)sc3nccc1c23 [Example 28]"
observation_type = "BTK_I_binding pIC50"
experimental_result = 6.67

[[record]]
molecule = "CNC1CCC(NC(=O)c2sc3nccc4c3c2NC(=O)N4c2ccc(Oc3ccccc3)cc2C)CC1 (stereo not shown) [Example 63]"
observation_type = "BTK_I_binding pIC50"
experimental_result = 6.85

[[record]]
molecule = "C=CC(=O)N[C@H]1CCCC[C@H]1NC(=O)c1sc2nccc3c2c1NC(=O)N3c1ccc(OC(C)C)nc1C (single isomer, unassigned) [Example 238]"
observation_type = "BTK_I_binding pIC50"
experimental_result = 6.95

[[record]]
molecule = "C=CC(=O)N[C@H]1CCCC[C@H]1NC(=O)c1sc2nccc3c2c1NC(=O)N3c1ccc(OC(C)C)nc1C [Example 211]"
observation_type = "BTK_I_binding pIC50"
experimental_result = 6.92

[[record]]
molecule = "C=CC(=O)N[C@H]1CCC[C@@H](NC(=O)c2sc3nccc4c3c2NC(=O)N4c2ccc(Oc3ccccc3)cc2C)C1 (single isomer, unassigned) [Example 237]"
observation_type = "BTK_I_binding pIC50"
experimental_result = 6.56

[[record]]
molecule = "Cc1cc(Oc2ccccc2)ncc1N1C(=O)Nc2c(C(=O)N[C@@H]3CCCC[C@H]3N)sc3nccc1c23 (single isomer, unassigned) [Example 255]"
observation_type = "BTK_I_binding pIC50"
experimental_result = 6.51

[[record]]
molecule = "CCC(=O)N[C@H]1CC[C@@H](NC(=O)c2sc3nccc4c3c2NC(=O)N4c2ccc(Oc3ccccc3)cc2C)CC1 (single isomer, unassigned) [Example 93]"
observation_type = "BTK_I_binding pIC50"
experimental_result = 6.99


---

target: unphosphorylated-BTK kinase domain (UP-BTK), GST-tagged human BTK (389-659aa) (Homo sapiens (Human), UniProt Q06187); test: BTK Kinase Lanthascreen Binding Assay; conditions: read-out: BTK_I_binding pIC50 (converted)
Sequence (Q06187 389-659): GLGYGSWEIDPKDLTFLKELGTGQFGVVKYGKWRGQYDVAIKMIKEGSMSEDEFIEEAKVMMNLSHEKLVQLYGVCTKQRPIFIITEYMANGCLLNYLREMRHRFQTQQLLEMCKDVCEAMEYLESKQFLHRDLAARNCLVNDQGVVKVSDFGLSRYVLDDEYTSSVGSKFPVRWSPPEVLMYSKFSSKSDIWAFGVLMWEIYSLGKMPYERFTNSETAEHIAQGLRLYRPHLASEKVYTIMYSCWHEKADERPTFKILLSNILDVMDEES
Consider the following molecules and their measured IC50 readings.
observation.type: IC50

[[record]]
molecule = "CCC(=O)N[C@H]1CC[C@H](NC(=O)c2sc3nccc4c3c2NC(=O)N4c2ccc(Oc3ccccc3)nc2C)C1 (single isomer, unassigned)"
observation_type = "IC50"
experimental_result = "> 1000 nM"

[[record]]
molecule = "C=CC(=O)NC1CCC(NC(=O)c2sc3nccc4c3c2NC(=O)N4c2ccc(Oc3ccccc3)cc2)C1 (racemic)"
observation_type = "IC50"
experimental_result = "14.1 nM"

[[record]]
molecule = "CC(=O)N[C@@H]1CCC[C@@H]1NC(=O)c1sc2nccc3c2c1NC(=O)N3c1ccc(Oc2ccccc2)cc1C (single isomer, unassigned)"
observation_type = "IC50"
experimental_result = "> 1000 nM"


---

target: unphosphorylated-BTK kinase domain (UP-BTK), GST-tagged human BTK (389-659aa) (Homo sapiens (Human)); experiment: BTK Kinase Lanthascreen Binding Assay; conditions: compound, 50 nM Tracer 236, 2 nM anti-GST antibody, 60 minutes; pIC50 = negative log of the IC50 in molar
compounds and their reported BTK_I_binding pIC50
observation.type: BTK_I_binding pIC50

[[record]]
compound = "Cc1cc(Oc2ccccc2)ccc1N1C(=O)Nc2c(C(=O)N[C@@H]3CCC[C@@H]3O)sc3nccc1c23 (single isomer, unassigned) [Example 8]"
observation_type = "BTK_I_binding pIC50"
experimental_result = 7.95

[[record]]
compound = "N[C@@H]1CCC[C@H]1NC(=O)c1sc2nccc3c2c1NC(=O)N3c1ccc(Oc2ccccc2)cc1"
observation_type = "BTK_I_binding pIC50"
experimental_result = 7.31

[[record]]
compound = "Cc1cc(OC(C)C)ccc1N1C(=O)Nc2c(C(=O)N[C@@H]3CCC[C@@H]3N)sc3nccc1c23 (single isomer, unassigned)"
observation_type = "BTK_I_binding pIC50"
experimental_result = 6.39

[[record]]
compound = "N[C@H]1CCCC[C@H]1NC(=O)c1sc2nccc3c2c1NC(=O)N3c1ccc(Oc2ccccc2)c(Cl)c1"
observation_type = "BTK_I_binding pIC50"
experimental_result = 7.49

[[record]]
compound = "C=CC(=O)N[C@H]1CCC[C@H]1NC(=O)c1sc2nccc3c2c1NC(=O)N3c1cnc(Oc2ccccc2)cc1C (single isomer, unassigned)"
observation_type = "BTK_I_binding pIC50"
experimental_result = 8.19

[[record]]
compound = "C=CC(=O)NC1CCC[C@H]1NC(=O)c1sc2nccc3c2c1NC(=O)N3c1ccnc(-c2ccccc2)c1 (stereo in doubt)"
observation_type = "BTK_I_binding pIC50"
experimental_result = 7.48


---

biological target: unphosphorylated-BTK kinase domain (UP-BTK), GST-tagged human BTK (389-659aa) (Homo sapiens (Human), UniProt Q06187); experiment: BTK Kinase Lanthascreen Binding Assay; conditions: Lanthascreen binding, 60 minutes incubation; pIC50 = negative log of the IC50 in molar
The entries below are paired with their reported BTK_I_binding pIC50.
observation.type: BTK_I_binding pIC50

[[record]]
compound = "C=CC(=O)N[C@H]1CCCC[C@H]1NC(=O)c1sc2nccc3c2c1NC(=O)N3c1cnc(OC2CCCC2)cc1C (single isomer, unassigned) [Example 341]"
experimental_result = 6.23

[[record]]
compound = "CC(=O)N[C@H]1CC[C@@H](NC(=O)c2sc3nccc4c3c2NC(=O)N4c2cnc(Oc3ccccc3)cc2C)C1 (single isomer, unassigned)"
experimental_result = 6.26

[[record]]
compound = "C=CC(=O)N[C@H]1CC[C@@H](NC(=O)c2sc3nccc4c3c2NC(=O)N4c2cnc(OC(C)C)cc2C)C1 (single isomer, unassigned)"
experimental_result = 7.88

[[record]]
compound = "C=CC(=O)N[C@@H]1CC[C@H](NC(=O)c2sc3nccc4c3c2NC(=O)N4c2cnc(Oc3ccccc3)nc2)C1"
experimental_result = 7.21

[[record]]
compound = "C=CC(=O)N[C@H]1CCC[C@H]1NC(=O)c1sc2nccc3c2c1NC(=O)N3c1ccc(Oc2cccnn2)cc1C (single isomer, unassigned) [Example 425]"
experimental_result = 6.67

[[record]]
compound = "C=CC(=O)N[C@@H]1CCC[C@H]1NC(=O)c1sc2nccc3c2c1NC(=O)N3c1cccc(-c2cccnc2)c1"
experimental_result = 6.90

[[record]]
compound = "CC(=O)N[C@H]1CCC[C@H]1NC(=O)c1sc2nccc3c2c1NC(=O)N3c1ccc(Oc2ccccc2)nc1C (single isomer, unassigned)"
experimental_result = 6.09

[[record]]
compound = "C=CC(=O)N[C@@H]1CCC[C@H]1NC(=O)c1sc2nccc3c2c1NC(=O)N3c1ccc(OC(C)C)cc1C (single isomer, unassigned)"
experimental_result = 7.33

[[record]]
compound = "CC(=O)N[C@H]1CCC[C@H](NC(=O)c2sc3nccc4c3c2NC(=O)N4c2cnc(Oc3ccccc3)cc2C)C1 (single isomer, unassigned)"
experimental_result = 6.46

[[record]]
compound = "C=CC(=O)N[C@H]1CCCC[C@H]1NC(=O)c1sc2nccc3c2c1NC(=O)N3c1ccc(Oc2ccccc2)nc1C (single isomer, unassigned)"
experimental_result = 8.40

[[record]]
compound = "Cc1cc(CC(C)C)ncc1N1C(=O)Nc2c(C(=O)N[C@@H]3CCCC[C@@H]3N)sc3nccc1c23 (single isomer, unassigned)"
experimental_result = 6.38

[[record]]
compound = "CC(C)c1cc(N2C(=O)Nc3c(C(=O)N[C@@H]4CCC[C@H]4N)sc4nccc2c34)ccn1"
experimental_result = 6.01

[[record]]
compound = "C=CC(=O)N[C@@H]1CCC[C@H]1NC(=O)c1sc2nccc3c2c1NC(=O)N3c1ccnc(-c2ccccn2)c1"
experimental_result = 6.12

[[record]]
compound = "C=CC(=O)N[C@H]1CC[C@@H](NC(=O)c2sc3nccc4c3c2NC(=O)N4c2ccc(Oc3ccccc3)cn2)C1 (single isomer, unassigned)"
experimental_result = 6.58

[[record]]
compound = "C=CC(=O)N[C@H]1CCC[C@H]1NC(=O)c1sc2nccc3c2c1NC(=O)N3c1cnc(OC2CCCC2)cc1C (single isomer, unassigned)"
experimental_result = 8.23

[[record]]
compound = "Cc1cc(Oc2ccccc2)ccc1N1C(=O)Nc2c(C(=O)N[C@H]3CCCC[C@H]3N)sc3nccc1c23 (single isomer, unassigned)"
experimental_result = 6.47

[[record]]
compound = "C=CC(=O)N[C@@H]1CCC[C@@H](NC(=O)c2sc3nccc4c3c2NC(=O)N4c2ccc(Oc3ccccc3)nc2)C1 (single isomer, unassigned)"
experimental_result = 6.66

[[record]]
compound = "C=CC(=O)N[C@H]1CCC[C@@H]1NC(=O)c1sc2nccc3c2c1NC(=O)N3c1ccc(Oc2ccccc2)cc1C"
experimental_result = 7.53

[[record]]
compound = "C=CC(=O)N[C@H]1CC[C@H](NC(=O)c2sc3nccc4c3c2NC(=O)N4c2ccc(Oc3ccccc3)nc2)C1 (single isomer, unassigned)"
experimental_result = 7.71

[[record]]
compound = "C=CC(=O)N[C@H]1CCC[C@H]1NC(=O)c1sc2nccc3c2c1NC(=O)N3c1ccc(-n2ccccc2=O)nc1C"
experimental_result = 6.85

[[record]]
compound = "C=CC(=O)N[C@H]1CCC[C@H]1NC(=O)c1sc2nccc3c2c1NC(=O)N3c1cccc(C(C)C)c1"
experimental_result = 8.02

[[record]]
compound = "C=CC(=O)N[C@@H]1CC[C@H](NC(=O)c2sc3nccc4c3c2NC(=O)N4c2cnc(Oc3ccccc3)cc2C)C1 (single isomer, unassigned)"
experimental_result = 8.17

[[record]]
compound = "CC(=O)N[C@H]1CCC[C@H]1NC(=O)c1sc2nccc3c2c1NC(=O)N3c1ccc(Oc2ccccc2)cc1"
experimental_result = 6.66

[[record]]
compound = "C=CC(=O)N[C@@H]1CCN(C(=O)c2sc3nccc4c3c2NC(=O)N4c2ccc(Oc3ccccc3)cc2C)C1"
experimental_result = 6.29

